biological target: T1, human GPRC5D protein (human, UniProt Q9NZD1 1-345); assay: FACS on CHO-K1-hGPRC5D^hi cells
T1 construct: also called hGPRC5D; CHO-K1-hGPRC5D^hi
T1 sequence (Q9NZD1 whole entry): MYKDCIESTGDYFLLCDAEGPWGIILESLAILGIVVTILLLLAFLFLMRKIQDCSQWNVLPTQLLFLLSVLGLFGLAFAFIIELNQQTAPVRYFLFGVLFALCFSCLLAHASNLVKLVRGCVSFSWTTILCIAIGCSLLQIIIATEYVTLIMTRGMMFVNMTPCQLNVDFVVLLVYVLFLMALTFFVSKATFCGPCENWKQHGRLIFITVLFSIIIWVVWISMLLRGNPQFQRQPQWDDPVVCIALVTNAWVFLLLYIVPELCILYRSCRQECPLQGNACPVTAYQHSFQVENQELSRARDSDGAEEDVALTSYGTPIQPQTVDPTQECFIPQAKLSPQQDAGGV
Reported Endpoint: binding result

Prompt: Fill in: binding result of Chi-105 (antibody, human IgG1, kappa, V domains shown, Human-mouse chimeric antibody, human IgG1 heavy chain constant region and Kappa light chain constant region) VH: EVQLQQSGPELVKPGASVKMSCKASGYTFTDYYMNWVKQSHGKSLEWIGYIYPNNGGTGYNQRFKGKATLTADKSSSTAYMELRSLTSEDSAVYYCARWGGTRLGYYAMDYWGQGTSVTVSS VL: DIVMTQSQKFMSTSVGDRVSVTCKASQNVGTNVVWYQQKPGQSPKLLIYWASTRHTGVPDRFTGSGSGTDFTLTISNVQSEDLADYFCQQYSRYPYTFGGGTKLEIKR is ___
Response: binds

Prompt: Fill in: binding result of Chi-169 (antibody, human IgG1, kappa, V domains shown, Human-mouse chimeric antibody, human IgG1 heavy chain constant region and Kappa light chain constant region; also called chimeric antibody Chi-169) VH: EVKLVESGGGLVKPGASLKLSCAASGFTFSNYGMSWVRQTSDKRLEWVASISSGGGRIYYPDNVKGRFTISRENAKNTLYLQMSSLKSEDTALYYCTRHAMDNWGQGTSVIVSS VL: QIVLTQSPAIMSASPGEKVTMTCSASSSVSNMYWYQQKSGTSPKRWIYDTSKLASGVPARFSGSGSGTSYSLTISSMEAEDASTYYCQQWSSNPLTFGAGTTLELKR is ___
Response: binds

Prompt: Fill in: binding result of Chi-128 (antibody, human IgG1, kappa, V domains shown, Human-mouse chimeric antibody, human IgG1 heavy chain constant region and Kappa light chain constant region) VH: DVQLVESGGGLVQPGGSRKVSCAASGFTFSSFGMHWVRQAPEKGLEWVAYISRGSSTIYYADTVKGRFTISRDNPKNTLFLQMTSLRSEDTAMYYCARSGYGSSSYYFDYWGQGTTLTVSS VL: ENVLTQSPAIMSASPREKVTMTCRASSSIRSSYLHWYQQKSGASPKLWIYSTSNLASGVPARFSGSGSGTSYSLTISSVEAEDAATYYCQQFSGYPLTFGGGTKLEIKR is ___
Response: binds
